System: CAMK2D;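 further: KINOMEscan kinase panel screen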
conditions: concentration: 1 μM, replicates: in singlicate; n = 1
Reported %Inh by item:
recorded_endpoint: %Inh (%)

>  <molecule>
Oc1cc(Nc2ccnc3cc(I)ccc23)ccc1F

>  <value_reported>
0

$$$$
>  <molecule>
CC(C)c1nc(-c2cccc(NS(=O)(=O)c3c(F)cccc3F)c2F)c(-c2ccnc(Nc3ccc(N4CCOCC4)nc3)n2)s1

>  <value_reported>
3

$$$$
>  <molecule>
FC(F)(F)c1ccc(/C=C/c2cncnc2Nc2ccc3[nH]c(Cc4ccccc4)nc3c2)cc1

>  <value_reported>
3

$$$$
>  <molecule>
Cc1ccc(C(=O)N2CC[C@@H](O)C2)cc1-n1c(C)cc(OCc2ccc(F)cc2F)c(Br)c1=O

>  <value_reported>
0

$$$$
>  <molecule>
CSc1cccc2c(-c3ccncn3)c(-c3ccc(F)cc3)nn12

>  <value_reported>
0

$$$$
>  <molecule>
COc1cc(Nc2nccc(-c3c(-c4cccc(NC(=O)c5c(F)cccc5F)c4)nn4ccccc34)n2)cc(OC)c1OC

>  <value_reported>
35

$$$$
>  <molecule>
Cl.Cl.NCC(C(=O)Nc1cc(Br)c(-c2ccnc3[nH]ccc23)s1)c1ccccc1 (stereo not shown)

>  <value_reported>
8

$$$$
>  <molecule>
COc1cc(Nc2nccc(-c3c(-c4cccc(NC(=O)c5c(F)cccc5F)c4)nn4ncccc34)n2)cc(OC)c1OC

>  <value_reported>
10

$$$$
>  <molecule>
COc1cccc(C(=O)Nc2cccc(Oc3ccc4nc(NC(=O)C5CC5)cn4n3)c2)c1

>  <value_reported>
15

$$$$
>  <molecule>
COc1cccc(C2=C(Nc3ccc(Cl)c(C(=O)O)c3)C(=O)NC2=O)c1

>  <value_reported>
3

$$$$
>  <molecule>
COc1ccc(CNC(=O)NC2CCN(c3ccnc(Nc4ccc(F)cc4)n3)CC2)cc1

>  <value_reported>
8

$$$$
>  <molecule>
COC(=O)Nc1nc2ccc(Oc3ccc(NC(=O)Nc4cc(C(F)(F)F)ccc4F)cc3)cc2n1C.Cl

>  <value_reported>
0

$$$$
>  <molecule>
O=C(Nc1cccc(-c2nn3ncccc3c2-c2ccnc(Nc3ccccc3)n2)c1)c1c(F)cccc1F

>  <value_reported>
13

$$$$
